# Tested on: MS2 coat protein
# PROTOCOL TEXT: apparent KD of MS2 coat protein; designed switch direction (-1 OFF switch, 1 ON switch): -1; higher = weaker reporter binding
# CONDITION DESCRIPTION: input ligand: none
This listing pairs sequences with measured apparent KD of MS2 coat protein.
PROPERTY: apparent KD of MS2 coat protein (nM)

{"SEQ STRING": "AGAUAGAGCUGAGGAUAUGAGAAUAGAAAGAAAUCAGAAGGCAGACAUGAGGAUCACCCAUGUGAGUUCUUGAGAUUACAUGGU [Prohibition 43 - Jieux - Exclusion NG 1] (Eterna round: R96, puzzle: Exclusion NG 1)", "PROPERTY": "apparent KD of MS2 coat protein", "TEST RESULT": 247}
{"SEQ STRING": "GGUCAGAUGGUAGGAUAUCCAUAUCGAGUGACUCUUUCAUAACAUGAGGAUCACCCAUGUCGGUGGGAGAAGGGCCGUACGGCG [salish99_ExNG02_R04_016] (Eterna round: R96, puzzle: Exclusion NG 2)", "PROPERTY": "apparent KD of MS2 coat protein", "TEST RESULT": 36.6}
{"SEQ STRING": "UGAUCAGACCGAGGAUAUACAUGUAGGACCCACGUGAGUGGGUCCAUUACAUGAGGAUCACCCAUGUAGAAGGCGGUCUGAUCU [JL ENG2 1.90] (Eterna round: R96, puzzle: Exclusion NG 2)", "PROPERTY": "apparent KD of MS2 coat protein", "TEST RESULT": 139}
{"SEQ STRING": "CCUCUACAUGAGGAUCACCCAUGUGAGGAUAUGUUGACGAGCCAGAAAUGGCUGGUCAACAGAAGGCAUAUGUA [Exclusion 1 (Mod 2.1 solution 16 by Eternabot)] (Eterna round: R97, puzzle: Exclusion 1)", "PROPERTY": "apparent KD of MS2 coat protein", "TEST RESULT": 23.7}

----------
This listing pairs sequences with measured apparent KD of MS2 coat protein.
# System: MS2 coat protein
# PROTOCOL TEXT: apparent KD of MS2 coat protein; designed switch direction (-1 OFF switch, 1 ON switch): 1; higher = weaker reporter binding
# CONDITION DESCRIPTION: input ligand: FMN 200 uM
PROPERTY: apparent KD of MS2 coat protein (µM)

{"SEQ STRING": "UGAAUAGUUACAGGAUAUCAUGCGAAAAUUGCGUGAGAAGGGUGGGUGUUGUGCGCAAAGUGCUACAUGAGGAUCACCCAUGUU [SameState NG1 #39] (Eterna round: R96, puzzle: Same State NG 1)", "PROPERTY": "apparent KD of MS2 coat protein", "TEST RESULT": 0.278}
{"SEQ STRING": "ACAUGAGAGUUAGGAUAUGUUGUACCUACAUGUGACAUGAGGAUCACCCAUGUGGUAAGUAUGAGGCAGAAGGGACAGAUAUGU [Equivalence 46 - Jieux - Same State NG 2] (Eterna round: R96, puzzle: Same State NG 2)", "PROPERTY": "apparent KD of MS2 coat protein", "TEST RESULT": 0.0757}
{"SEQ STRING": "GCCAUCGCAUGAGGAUAUGGCACCGUUUCGGUGCCAGAAGGCAUGUCGAAUGACAUGAGGAUCACCCAUGUAGUAUAGAUGGCA [JL Fiskers NG1ss - 33 mod 10] (Eterna round: R96, puzzle: Same State NG 1)", "PROPERTY": "apparent KD of MS2 coat protein", "TEST RESULT": 0.059}
{"SEQ STRING": "GGAAUAUUUACAGGAUAUGAGUUGUAAAGUCGAUCAGAAGGGUAGGUGUCUUGCACGGUGUGUUACAUGAGGAUCACCCAUGUU [SameState NG1 #21] (Eterna round: R96, puzzle: Same State NG 1)", "PROPERTY": "apparent KD of MS2 coat protein", "TEST RESULT": 0.156}
{"SEQ STRING": "GUGGUCAGACAUGAGGAUCACCCAUGUGGAAUAAAUAACACACAGGAUAUGGAAUAUAAAAUAUACCAGAAGGGUGGAUUGGUG (Eterna round: R96, puzzle: Same State NG 3)", "PROPERTY": "apparent KD of MS2 coat protein", "TEST RESULT": 0.157}
{"SEQ STRING": "GAGCCAGUCCGAGGAUAUUCAUAUAAAUUAAAUACAUGAGGAUCACCCAUGUAGGCGGAGCCUUGGGAGAAGGCGGACUGGCUC [Xeonanisa>>5] (Eterna round: R96, puzzle: Same State NG 2)", "PROPERTY": "apparent KD of MS2 coat protein", "TEST RESULT": 0.0227}
{"SEQ STRING": "AGCUAUUACGAAGGAUAUUCUGACAUGAGGAUCACCCAUGUCUUCAUGAUUUAUUGUGAUCACGUGAAGAAGGUUGUACUAACA [SameState NG2 #26] (Eterna round: R96, puzzle: Same State NG 2)", "PROPERTY": "apparent KD of MS2 coat protein", "TEST RESULT": 0.0664}
{"SEQ STRING": "GGAGCCGGCCUAGGAUAUUUCAUUAAUAAACAUGAGGAUCACCCAUGUAGGCCAGAAGGCCUUGGGAAGAAGGAGGUCGGCUCC [Loop Effect - U24,U27] (Eterna round: R96, puzzle: Same State NG 2)", "PROPERTY": "apparent KD of MS2 coat protein", "TEST RESULT": 0.0212}
{"SEQ STRING": "AUUAUUUUUGCAGGAUAUGAUUAACAUGAGGAUCACCCAUGUGGUGUUGUGAGUAAGGAGAGUGAUCAGAAGGGCAUUUUUUUU [JMF's solution 60] (Eterna round: R96, puzzle: Same State NG 2)", "PROPERTY": "apparent KD of MS2 coat protein", "TEST RESULT": 0.449}
{"SEQ STRING": "GUUAUUUAUGCAGGAUAUGAUUAACAUGAGGAUCACCCAUGUGGUGUUGUGAGUAAGGAGAGUGAUCAGAAGGGCAUUUUUUUU [JMF's solution 77] (Eterna round: R96, puzzle: Same State NG 2)", "PROPERTY": "apparent KD of MS2 coat protein", "TEST RESULT": 0.626}
{"SEQ STRING": "UUUAUUAAUGCAGGAUAUGAUUAACAUGAGGAUCACCCAUGUGGUGUUGUGAGUAAGGAGAGUGAUCAGAAGGGCAUUUUUUUU [JMF's solution 39] (Eterna round: R96, puzzle: Same State NG 2)", "PROPERTY": "apparent KD of MS2 coat protein", "TEST RESULT": 0.524}
{"SEQ STRING": "AUUGCUGUCACAGGAUAUCAUGCGGAAAUCGCGUGAGAAGGGUGGACUCUGUCAUUCACGGAGGACAUGAGGAUCACCCAUGUC [SS NG10LRO18] (Eterna round: R96, puzzle: Same State NG 1)", "PROPERTY": "apparent KD of MS2 coat protein", "TEST RESULT": 0.508}
{"SEQ STRING": "UGCUAGUGGGUAGGAUAUUUAGGAUAUGGGAAAGACUAAGUCUGUAGGUCACCUAACCCAGAAGGAGAGAAGGACCCUUCAGCU [pwkr ssNG2 2FMN + F9.28] (Eterna round: R96, puzzle: Same State NG 2)", "PROPERTY": "apparent KD of MS2 coat protein", "TEST RESULT": 1.66}
{"SEQ STRING": "ACCCGCGACGGAGGAUAUGGGCACUCGGCGAAAUAAACCGCCAUAACAUGAGGAUCACCCAUGUCCCAGAAGGCCGCCGCAAAC [Leatve] (Eterna round: R96, puzzle: Same State NG 2)", "PROPERTY": "apparent KD of MS2 coat protein", "TEST RESULT": 0.0923}
{"SEQ STRING": "UUAACAUGAGGAUCACCCAUGUAUACGGAGUUUGCAAUUUGACAGGAUAUUGAAGAUCUAUAUAGCAAGAAGGGUCGUUAGUCU [JR_SSNG3_Sub006] (Eterna round: R96, puzzle: Same State NG 3)", "PROPERTY": "apparent KD of MS2 coat protein", "TEST RESULT": 0.0475}
{"SEQ STRING": "GGAGCCGGCCUAGGAUAUUUCAUAAAACAACAUGAGGAUCACCCAUGUAGGCCAGAAGGCCUUGGGAAGAAGGAGGUCGGCUCC [Loop Effect - C28] (Eterna round: R96, puzzle: Same State NG 2)", "PROPERTY": "apparent KD of MS2 coat protein", "TEST RESULT": 0.0102}
{"SEQ STRING": "GUAGCAUACCGAGGAUAUUCAUAUUAACAUGAGGAUCACCCAUGUUUUUAGGCCAAAAGGCCUUGGGAGAAGGCGGAAUGCUAC [Xeonanis - 20 Mod6] (Eterna round: R96, puzzle: Same State NG 2)", "PROPERTY": "apparent KD of MS2 coat protein", "TEST RESULT": 0.0114}
{"SEQ STRING": "GUAGCAUGCAGGCAGGAUAUUCAUAUUAAAACAUGAGGAUCACCCAUGUAGGCCAAAAGGCCUUGGGAGAAGGGCCACAUGCUAC [Xeonanis - 19] (Eterna round: R96, puzzle: Same State 2)", "PROPERTY": "apparent KD of MS2 coat protein", "TEST RESULT": 0.0357}
